Biological target: HLA-A*02:01
Assay: IEDB peptide-MHC binding, purified MHC/competitive/fluorescence; bounds were set here for any values at or beyond the usual limits of such assays
Settings: source organism: Vaccinia virus Copenhagen

[
  {
    "sequence content": "MLEGETKLY",
    "IC50": "≥ 166 µM"
  },
  {
    "sequence content": "ASPMLYQLL",
    "IC50": "39.6 µM"
  },
  {
    "sequence content": "IITPIVFYR",
    "IC50": "≥ 132 µM"
  }
]

----------
Biological target: HLA-B*57:01
Experiment: IEDB peptide-MHC binding, purified MHC/competitive/fluorescence; filed as Kd, often an IC50 or EC50 that approximates it; bounds were set here for any values at or beyond the usual limits of such assays
Settings: source organism: Candida albicans SC5314
measured metric: Kd

[
  {
    "sequence content": "RVYNNTARY",
    "target system": "HLA-B*57:01",
    "measured metric": "Kd",
    "result": "655 nM"
  }
]

----------
Target: HLA-B*08:03
Assay: IEDB peptide-MHC binding, purified MHC/direct/fluorescence; filed as Kd, often an IC50 or EC50 that approximates it; bounds were set here for any values at or beyond the usual limits of such assays
Conditions: source organism: Vibrio vulnificus CMCP6
pKd: −log10 of the molar value.
In this section, each of the sequences is paired with its reported pKd.
measured metric: pKd

[
  {
    "sequence content": "GWPDNYCEW",
    "result": "≤ 4.70"
  },
  {
    "sequence content": "KGHLPLLDK",
    "result": "≤ 4.70"
  }
]

----------
Target: HLA-B*15:02
Experiment: IEDB peptide-MHC binding, purified MHC/direct/fluorescence; filed as Kd, often an IC50 or EC50 that approximates it; bounds were set here for any values at or beyond the usual limits of such assays
Settings: source organism: dengue virus type 4

[
  {
    "sequence content": "RTWAYHGSY",
    "target system": "HLA-B*15:02",
    "Kd": "≥ 20 µM"
  }
]

----------
Target: HLA-B*58:01
Test: IEDB peptide-MHC binding, purified MHC/direct/fluorescence; filed as Kd, often an IC50 or EC50 that approximates it; bounds were set here for any values at or beyond the usual limits of such assays
Conditions: source organism: Homo sapiens
pKd: −log10 of the molar value.

[
  {
    "sequence content": "SSEQTFMYY",
    "pKd": 5.61
  }
]

----------
Biological target: HLA-A*29:02
Assay: IEDB peptide-MHC binding, purified MHC/direct/fluorescence; filed as Kd, often an IC50 or EC50 that approximates it; bounds were set here for any values at or beyond the usual limits of such assays
Conditions: source organism: Araucaria virus
pKd: −log10 of the molar value.

[
  {
    "sequence content": "AQKLATKPV",
    "pKd": "≤ 4.70"
  }
]

----------
Target: HLA-B*58:01
Assay: IEDB peptide-MHC binding, purified MHC/direct/fluorescence; filed as Kd, often an IC50 or EC50 that approximates it; bounds were set here for any values at or beyond the usual limits of such assays
Settings: source organism: Salmonella enterica

[
  {
    "sequence content": "MGKTITDVK",
    "target system": "HLA-B*58:01",
    "Kd": "≥ 20 µM"
  },
  {
    "sequence content": "RKAGVNQAK",
    "target system": "HLA-B*58:01",
    "Kd": "≥ 20 µM"
  }
]

----------
Target: HLA-A*24:03
Assay: IEDB peptide-MHC binding, purified MHC/competitive/fluorescence; filed as Kd, often an IC50 or EC50 that approximates it; bounds were set here for any values at or beyond the usual limits of such assays
Conditions: source organism: Escherichia coli HS
measured metric: Kd

[
  {
    "sequence content": "ISLWGSLLK",
    "result": "≥ 20 µM"
  }
]

----------
Target: HLA-A*31:01
Test: IEDB peptide-MHC binding, purified MHC/competitive/radioactivity; filed as Kd, often an IC50 or EC50 that approximates it; bounds were set here for any values at or beyond the usual limits of such assays
Conditions: source organism: Dengue virus 4 Philippines/H241/1956

[
  {
    "sequence content": "KFQPESPAR",
    "Kd (nM)": 64.2
  }
]

----------
Target: HLA-B*44:03
Experiment: IEDB peptide-MHC binding, purified MHC/competitive/radioactivity; filed as Kd, often an IC50 or EC50 that approximates it; bounds were set here for any values at or beyond the usual limits of such assays
Details: source organism: Dengue virus 1 Brazil/97-11/1997
measured metric: Kd

[
  {
    "sequence content": "MEIRPVKEK",
    "measured metric": "Kd",
    "result": "1010 nM"
  },
  {
    "sequence content": "KEISSMLNI",
    "measured metric": "Kd",
    "result": "76.6 nM"
  },
  {
    "sequence content": "NEMGLLETT",
    "measured metric": "Kd",
    "result": "8030 nM"
  },
  {
    "sequence content": "GEVGAIALDF",
    "measured metric": "Kd",
    "result": "23.5 nM"
  },
  {
    "sequence content": "AETQHGTVL",
    "measured metric": "Kd",
    "result": "52.7 nM"
  },
  {
    "sequence content": "EENMDVEIW",
    "measured metric": "Kd",
    "result": "123 nM"
  }
]

----------
Biological target: HLA-A*02:12
Experiment: IEDB peptide-MHC binding, purified MHC/competitive/fluorescence; filed as Kd, often an IC50 or EC50 that approximates it; bounds were set here for any values at or beyond the usual limits of such assays
Conditions: source organism: Brucella suis ATCC 23445
measured metric: Kd

[
  {
    "sequence content": "ITAVNRYFK",
    "result": "≥ 20 µM"
  }
]

----------
Molecular target: HLA-A*02:02
Test: IEDB peptide-MHC binding, purified MHC/competitive/radioactivity; filed as Kd, often an IC50 or EC50 that approximates it; bounds were set here for any values at or beyond the usual limits of such assays
Conditions: source organism: Vaccinia virus WR
measured metric: Kd (nM)

[
  {
    "sequence content": "KLKVDSDSGL",
    "result units": "nM",
    "measurement qualifier": "=",
    "result": 74.6
  },
  {
    "sequence content": "TICLKNEGV",
    "result units": "nM",
    "measurement qualifier": "=",
    "result": 494
  },
  {
    "sequence content": "AATKRYPGVM",
    "result units": "nM",
    "measurement qualifier": "≥",
    "result": 20100
  },
  {
    "sequence content": "NIVTDLENRL",
    "result units": "nM",
    "measurement qualifier": "=",
    "result": 261
  },
  {
    "sequence content": "GVLIAGIIL",
    "result units": "nM",
    "measurement qualifier": "=",
    "result": 5240
  },
  {
    "sequence content": "QQLCTMERT",
    "result units": "nM",
    "measurement qualifier": "≥",
    "result": 77800
  },
  {
    "sequence content": "KTPVIVVPVI",
    "result units": "nM",
    "measurement qualifier": "=",
    "result": 9090
  },
  {
    "sequence content": "YIESKAKQL",
    "result units": "nM",
    "measurement qualifier": "=",
    "result": 144
  },
  {
    "sequence content": "IMRNFLRSI",
    "result units": "nM",
    "measurement qualifier": "=",
    "result": 485
  },
  {
    "sequence content": "IMSMMNITRL",
    "result units": "nM",
    "measurement qualifier": "=",
    "result": 61.8
  },
  {
    "sequence content": "LVITYCLVT",
    "result units": "nM",
    "measurement qualifier": "=",
    "result": 6980
  }
]

----------
Target: HLA-B*15:01
Assay: IEDB peptide-MHC binding, purified MHC/competitive/radioactivity; filed as Kd, often an IC50 or EC50 that approximates it; bounds were set here for any values at or beyond the usual limits of such assays
Settings: source organism: Dengue virus 1 Brazil/97-11/1997
pKd: −log10 of the molar value.

[
  {
    "sequence content": "IMAIGIVSIL",
    "pKd": 7.57
  },
  {
    "sequence content": "RQRTPQDNQL",
    "pKd": 6.95
  },
  {
    "sequence content": "FQYSDRRWCF",
    "pKd": 8.41
  }
]

----------
Target: HLA-A*02:01
Test: IEDB peptide-MHC binding, purified MHC/direct/fluorescence; filed as Kd, often an IC50 or EC50 that approximates it; bounds were set here for any values at or beyond the usual limits of such assays
Settings: source organism: Toxoplasma gondii
pKd: −log10 of the molar value.
measured metric: pKd

[
  {
    "sequence content": "AYMDRKSFK",
    "result": "≤ 4.70"
  }
]
